System: SN12C renal
test.description: NCI-60 one-dose screen, 48 h (100 = growth as untreated, 0 = no growth, -100 = all killed)
condition.summary: 10 µM unless noted
Compounds without any hit were thinned out: in the full panel of roughly 83,000, 20% have a hit. Calls of active or inactive are those of the source. Rule for the calls: active = growth percent below 10; inactive = the rest.
reported.endpoint: growth

// below: answered compounds
>>> measured("COc1cc2c(=O)n(CCCN(C)C)c3c4cc5c(cc4ccc3c2cc1OC)OCO5")
"50.4% (inactive)"
>>> measured("CCOC(=O)c1cc(C#N)n2ccc3ccccc3c12")
"94.5% (inactive)"
>>> measured("O=C1Nc2cc(Cl)ccc2/C1=C\\c1c(-c2ccc(F)cc2)nc2ccccn12")
"19.1% (inactive)"
>>> measured("CCOC(=O)CCN(CC(C)C)C(=S)Nc1ccccc1")
"98.3% (inactive)"
>>> measured("Fc1ccc(-c2cn3c(nc4ccccc43)c(-c3ccccc3)n2)cc1")
"89.2% (inactive)"

State, for SN12C renal, measured growth of the compound listed here: O=C(/C(=C\c1ccc([N+](=O)[O-])cc1)S(=O)Cc1ccc(Cl)cc1)c1ccc(Cl)cc1 (stereo unspecified)
49.6% (inactive)

====

System: RPMI-8226 leukemia
test.description: NCI-60 one-dose screen, 48 h (100 = growth as untreated, 0 = no growth, -100 = all killed)
condition.summary: 10 µM unless noted
Description: Growth inhibition of the RPMI-8226 human tumor cell line is measured as a screen for anti-cancer activity. Cells are grown in 96 well plates and exposed to the test compound for 48 hours. Compounds are tested at a single concentration, which is 10^-5 M for most compounds. The reported endpoint is percent growth (GI% or GIPRCNT), where numbers from 0 - 100% represent growth inhibition, and numbers from -100% - 0 represent cell death. For example, a value of 40 represents 60% growth inhibition. […]
Compounds without any hit were thinned out: in the full panel of roughly 83,000, 20% have a hit.
API: label(entry) gives T if the entry's growth is strictly smaller than 60%; on equality or larger values it gives F.

These recorded examples may help you get a feel for the data.
>>> assigned_label("CC1=CCC(OC(=O)C(C)(O)CCC(O)(C(=O)OC2(C)C=CC(O)(C(C)C)CC2)C(C)C)(C(C)C)CC1 (stereo unspecified)")
"F"
>>> assigned_label("O=C(/C(=C\\c1ccc([N+](=O)[O-])cc1)S(=O)Cc1ccc(F)cc1)c1ccc(F)cc1 (stereo unspecified)")
"T"
>>> assigned_label("COc1cc2oc(-c3cccc(C(=O)Nc4ccccc4)c3)cc(=O)c2c(O)c1OC")
"F"
>>> assigned_label("Cc1nn(-c2ccccc2)c(Cl)c1/C=N\\N=c1/sc2ccccc2n1C")
"F"
>>> assigned_label("C=C1C(=O)O[C@H]2[C@H]1CC/C(COC(=O)NCc1c[nH]c3ccc(Cl)cc13)=C\\CC[C@@]1(C)O[C@@H]21")
"T"
>>> assigned_label("c1ccc2c(-c3nccs3)c[nH]c2c1")
"F"

Given CN(C)CCn1c2ccc(Br)cc2c2nc3ccccc3nc21 , is recorded growth strictly lower than 60%?
T

Is the reported growth for C/C=C(\C)C(=O)NC1=CC[C@@]2(C)C(=CCC3C2CC[C@@]2(C)C3CC[C@@H]2C(C)N(C)C)C1=O (stereo partly specified) strictly below 60%?
T

====

System: NCI/ADR-RES ovarian
test.description: NCI-60 one-dose screen, 48 h (100 = growth as untreated, 0 = no growth, -100 = all killed)
condition.summary: 10 µM unless noted
This is part of a sample that, as a whole, favours compounds with a hit. Of some 83,000 tested, about 20% had one in any assay. Calls of active or inactive are those of the source. The calls were made as follows: active = growth percent below 10; inactive = the rest.
reported.endpoint: growth

>>> measured("CCCCCCCC(=O)OCC/C=C/C1OC1C1OC(=O)/C=C\\C=C\\C(=O)N(C(C)=O)C(=O)/C=C(/C)CCC2OC2C1OC(=O)NC(C)=O (stereo not drawn)")
"78.1% (inactive)"

Determine reported growth for NS(=O)(=O)c1ccc(Cn2c(SCC(=O)N/N=C/c3ccccc3O)nc3ccccc3c2=O)cc1 ; test system: NCI/ADR-RES ovarian.
98.3% (inactive)

Fill in growth for O=C(/C(=C\c1ccc([N+](=O)[O-])cc1)S(=O)Cc1ccc(F)cc1)c1ccc(F)cc1 (stereo not drawn) tested with NCI/ADR-RES ovarian.
20.7% (inactive)

# assay system NCI/ADR-RES ovarian: give growth of Cc1ccc(NC(=O)c2cc(-c3nc4ccccc4s3)c(=O)n(NS(=O)(=O)c3ccc(Cl)cc3)c2N)cc1
105% (inactive)

Please respond with reported growth (system NCI/ADR-RES ovarian) for N#Cc1cc(-c2nc3ccccc3s2)c(=O)n(NS(=O)(=O)c2ccccc2)c1N .
105% (inactive)

Fetch value of growth on NCI/ADR-RES ovarian for O=C(Nc1ccccc1)Nc1ccc2cc3ccc(NC(=O)Nc4ccccc4)cc3nc2c1 .
102% (inactive)

Output reported growth of the compound COc1cc(C2=C(c3cn(C)c4ccccc34)COC2=O)cc(OC)c1OC on NCI/ADR-RES ovarian.
13% (inactive)

Look up and report growth, with NCI/ADR-RES ovarian as system, for C#Cc1cccc(NC(=O)Nc2cccc(NC(=O)CCl)c2)c1
-15.1% [8.25 µM] (active)
